Ref: BindingDB's records for doi:10.1021/jm0209984

Item-by-item account of pEC50
- MEASUREMENT NOTES: Concentration required to achieve 50% protection of MT-4 cell from the HIV-1 induced cytopathogenicity was determined by the MTT method
pEC50: −log10 of the molar value.
MEASURED ATTRIBUTE: pEC50

INSERT INTO results (smiles_string, measured_attribute, obs_value) VALUES
  ('CCc1ccc(N(C(=O)c2ccco2)C(=S)OCCN2C(=O)c3ccccc3C2=O)cc1', 'pEC50', 7.52),
  ('O=C(/C=C/c1ccccc1)N(C(=S)OCCc1ccccc1)c1ccccc1', 'pEC50', 5.35),
  ('O=C1c2ccccc2C(=O)N1CCOC(=S)N(C(=O)c1ccccc1)c1ccc(Cl)cc1', 'pEC50', 7.00),
  ('O=C(c1ccco1)N(C(=S)OCCc1ccccc1)c1ccccc1', 'pEC50', 5.37),
  ('O=C(c1ccc(Cl)cc1)N(C(=S)OCCOc1ccccc1)c1ccccc1', 'pEC50', 4.99);

* * *

- MEASUREMENT NOTES: Concentration required to achieve 50% protection of MT-4 cell from the HIV-1 induced cytopathogenicity was determined by the MTT method
EC50 under 9 µM gets Met, anything at or over 9 µM gets Not met.

INSERT INTO measurements (compound, label) VALUES
  ('O=C1c2ccccc2C(=O)N1CCOC(=S)N(C(=O)c1cccs1)c1cccc(C(F)(F)F)c1', 'Not met'),
  ('O=C(c1ccc(Cl)c([N+](=O)[O-])c1)N(C(=S)OCCOc1ccccc1)c1ccccc1', 'Met'),
  ('O=C1c2ccccc2C(=O)N1CCOC(=S)N(C(=O)c1ccco1)c1ccc(Cl)cc1', 'Met'),
  ('COc1cccc(N(C(=O)c2cccs2)C(=S)OCCN2C(=O)c3ccccc3C2=O)c1', 'Met'),
  ('O=C1c2ccccc2C(=O)N1CCOC(=S)N(C(=O)c1ccc(Cl)cc1)c1ccc(Cl)cc1', 'Met'),
  ('CC(COc1ccccc1)OC(=S)N(C(=O)c1ccccc1)c1ccccc1 (stereo unspecified)', 'Met'),
  ('Cc1ccc(N(C(=O)c2cccs2)C(=S)OCCN2C(=O)c3ccccc3C2=O)cc1', 'Met'),
  ('COc1cc(C(=O)N(C(=S)OCCOc2ccccc2)c2ccccc2)cc(OC)c1OC', 'Not met'),
  ('O=C(c1ccccc1)N(C(=S)OCCc1ccccc1)c1ccccc1', 'Met'),
  ('CC(COc1ccccc1)OC(=S)N(C(=O)c1cccs1)c1ccc(Cl)cc1 (stereo unspecified)', 'Not met'),
  ('CC(COc1ccccc1)OC(=S)N(C(=O)Oc1ccccc1)c1ccccc1 (stereo unspecified)', 'Not met'),
  ('O=C1c2ccccc2C(=O)N1CCOC(=S)N(C(=O)c1cccs1)c1cccc(F)c1', 'Not met'),
  ('CC(COc1ccccc1)OC(=S)N(C(=O)c1cccs1)c1ccccc1 (stereo unspecified)', 'Met'),
  ('O=C(c1ccccc1)N(C(=S)OCCOc1ccccc1)C1CCCCC1', 'Not met'),
  ('CC(COc1ccccc1)OC(=S)N(C(=O)c1cccs1)c1ccc([N+](=O)[O-])cc1 (stereo unspecified)', 'Met'),
  ('O=C(c1ccccc1)N(C(=S)OCCOc1ccccc1)c1ccc(F)cc1', 'Met'),
  ('O=C1c2ccccc2C(=O)N1CCOC(=S)N(C(=O)c1ccccc1)c1ccc(Br)cc1', 'Met'),
  ('O=C1c2ccccc2C(=O)N1CCOC(=S)N(C(=O)c1cccs1)c1cccc(Cl)c1', 'Met'),
  ('O=C1c2ccccc2C(=O)N1CCOC(=S)N(C(=O)c1cccs1)c1ccc(I)cc1', 'Met'),
  ('O=C(c1ccccc1)N(C(=S)OCCSc1ccccc1)c1ccccc1', 'Not met'),
  ('O=C1c2ccccc2C(=O)N1CCOC(=S)N(C(=O)c1cccs1)c1ccccc1Cl', 'Not met'),
  ('S=C(NCCc1ccccn1)Nc1ccc(Br)cn1', 'Met'),
  ('O=C1c2ccccc2C(=O)N1CCOC(=S)N(C(=O)c1cccs1)c1ccc(F)cc1', 'Met'),
  ('O=C(c1ccc(Cl)cc1)N(C(=S)OCCc1ccccc1)c1ccccc1', 'Met'),
  ('COc1ccccc1N(C(=O)c1cccs1)C(=S)OCCN1C(=O)c2ccccc2C1=O', 'Not met'),
  ('O=C(c1cccs1)N(C(=S)OCCOc1ccccc1)c1ccccc1', 'Met'),
  ('O=C1c2ccccc2C(=O)N1CCOC(=S)N(C(=O)c1cccs1)c1cccc(Br)c1', 'Met'),
  ('CCCOC(=O)N(C(=S)OC(C)COc1ccccc1)c1ccccc1 (stereo unspecified)', 'Not met'),
  ('CC(=O)c1cccc(N(C(=O)c2cccs2)C(=S)OCCN2C(=O)c3ccccc3C2=O)c1', 'Met'),
  ('O=C(COc1ccccc1)N(C(=S)OCCOc1ccccc1)c1ccccc1', 'Met'),
  ('CC(COc1ccccc1)OC(=S)N(C(=O)c1ccco1)c1ccccc1 (stereo unspecified)', 'Met'),
  ('CCc1ccccc1N(C(=O)c1cccs1)C(=S)OCCN1C(=O)c2ccccc2C1=O', 'Not met'),
  ('Cc1cccc(N(C(=O)c2cccs2)C(=S)OCCN2C(=O)c3ccccc3C2=O)c1', 'Not met'),
  ('Cc1ccccc1N(C(=O)c1cccs1)C(=S)OCCN1C(=O)c2ccccc2C1=O', 'Not met'),
  ('CC(COc1ccccc1)OC(=S)N(C(=O)c1cccc([N+](=O)[O-])c1)c1ccccc1 (stereo unspecified)', 'Met'),
  ('CC(COc1ccccc1)OC(=S)N(C(=O)COc1ccccc1)c1ccccc1 (stereo unspecified)', 'Met'),
  ('O=C1c2ccccc2C(=O)N1CCOC(=S)N(C(=O)c1cccs1)c1ccc([N+](=O)[O-])cc1', 'Met'),
  ('O=C(/C=C/c1ccccc1)N(C(=S)OCCOc1ccccc1)c1ccccc1', 'Met'),
  ('CC(COc1ccccc1)OC(=S)N(C(=O)c1cccs1)c1cccc(Cl)c1 (stereo unspecified)', 'Not met'),
  ('O=C(c1ccccc1)N(C(=S)OCCOc1ccccc1)c1ccccc1', 'Met');

* * *

- MEASUREMENT NOTES: Concentration required to achieve 50% protection of MT-4 cell from the HIV-1 induced cytopathogenicity was determined by the MTT method
pEC50: −log10 of the molar value.
MEASURED ATTRIBUTE: pEC50

INSERT INTO assay_data (smiles_string, obs_value) VALUES
  ('Cc1ccc(C(=O)N(C(=S)OCCOc2ccccc2)c2ccccc2)cc1', 5.00),
  ('CC(=O)Oc1ccccc1C(=O)N(C(=S)OCCOc1ccccc1)c1ccccc1', 5.02),
  ('CCN(CC)c1ccc(N(C(=O)c2cccs2)C(=S)OCCN2C(=O)c3ccccc3C2=O)cc1', 4.96),
  ('O=C(c1ccco1)N(C(=S)OCCOc1ccccc1)c1ccccc1', 5.08),
  ('O=C(c1ccc(Cl)cc1Cl)N(C(=S)OCCOc1ccccc1)c1ccccc1', 4.94);
